property.name: melting point

COc1cc(NC(=O)C(=S)NN2C(=O)C(=Cc3cc(Br)ccc3O)SC2=S)cc(OC)c1OC; 208 to 209 °C

Task item: Field request: melting point | item: O=C(Nc1cccc(C(F)(F)F)c1)C(=S)NN1C(=O)C(=Cc2ccc([N+](=O)[O-])o2)SC1=S
Reply: 163 to 164 °C

Task item: Requested field: melting point. Item: COc1cc(NC(=O)C(=S)NN2C(=O)C(=Cc3cc(Cl)cc(Cl)c3O)SC2=S)cc(OC)c1OC
Reply: 215 to 216 °C

Task item: Data request, read-out melting point, for O=C(Nc1ccc(O)cc1)C(=S)NN1C(=O)C(=Cc2cccc([N+](=O)[O-])c2O)SC1=S
Reply: 179 to 180 °C

Task item: // melting point lookup, key: COc1ccc(NC(=O)C(=S)NN2C(=O)C(=Cc3ccc([N+](=O)[O-])o3)SC2=S)cc1
Reply: 187 to 188 °C

Task item: Any idea what melting point was measured for COc1cc(Br)cc(C=C2SC(=S)N(NC(=S)C(=O)Nc3ccc(O)cc3)C2=O)c1O ?
Reply: 176 to 177 °C

Task item: I would be grateful if you could share the reported melting point for COc1ccc(NC(=O)C(=S)NN2C(=O)C(=Cc3ccc([N+](=O)[O-])o3)SC2=S)cc1OC .
Reply: 156 to 157 °C

Task item: Entry O=C(Nc1ccc(O)cc1)C(=S)NN1C(=O)C(=Cc2cc(Br)ccc2O)SC1=S : reported melting point = ?
Reply: 190 to 191 °C

---

target.entity: HIV-1 IN (Human immunodeficiency virus type 1 group M subtype B, UniProt P12497)
Construct: pre-incubated with purified recombinant IN (at a final concentration of 200 nM); made in house
test.summary: In vitro IN inhibition assay (3’-processing and strand transfer)
Format: biochemical
condition.details: Mn2+ cofactor (7.5 mM MnCl2); read-out: Inhibition of IN catalytic activity IC50, 3’-Processing
Description: All compounds were dissolved in DMSO to a final stock concentration of 10 mM and stored at −20 °C. Initial screening for IN inhibitory effect was done at 100 μM and dilutions were made in DMSO. Compounds showing at least 50% inhibition at 100 μM were selected for IC50 determinations. γ-[^32P]-ATP was purchased from Perkin Elmer (Waltham, MA, USA). The expression system for wild-type IN was a generous gift of Dr. Robert Craigie, Laboratory of Molecular Biology, NIDDK, NIH (Bethesda, MD, USA). […]
property.name: pIC50
Reminder that pIC50 means the negative base-10 logarithm of the concentration expressed in mol/L.

// worked examples, pIC50 included
Cc1ccc(C(=O)C=C2SC(=S)N(NC(=S)C(=O)Nc3ccccc3)C2=O)cc1; 4.24
O=C(Nc1cccc([N+](=O)[O-])c1)C(=S)NN1C(=O)C(=Cc2ccc([N+](=O)[O-])o2)SC1=S; 4.24
COc1cc(NC(=O)C(=S)NN2C(=O)C(=Cc3cc(I)cc(I)c3O)SC2=S)cc(OC)c1OC; 4.33
COc1cc(NC(=O)C(=S)NN2C(=O)C(=Cc3cc(Cl)cc(Cl)c3O)SC2=S)cc(OC)c1OC; 4.34

Task item: Entry COc1cc(NC(=O)C(=S)NN2C(=O)C(=Cc3cccc([N+](=O)[O-])c3O)SC2=S)cc(OC)c1OC : reported pIC50 = ?
Reply: 4.13

Task item: Looking for the measured pIC50 of O=C(Nc1ccc(Cl)cc1)C(=S)NN1C(=O)C(=Cc2ccc([N+](=O)[O-])o2)SC1=S , can you help?
Reply: 4.17

Task item: May I ask what pIC50 has been recorded for COc1cc(NC(=O)C(=S)NN2C(=O)C(=Cc3cc(N=Nc4ccccc4)ccc3O)SC2=S)cc(OC)c1OC ?
Reply: 4.48

Task item: I am curious: what pIC50 value has been reported for O=C(Nc1ccc(O)cc1)C(=S)NN1C(=O)C(=Cc2ccc(O)c(C(=O)O)c2)SC1=S ?
Reply: 4.10

Task item: For O=C(Nc1ccc(F)cc1)C(=S)NN1C(=O)C(=Cc2ccc([N+](=O)[O-])o2)SC1=S , what is its reported pIC50?
Reply: 4.00

Task item: Suppose we examine the molecule COc1cc(NC(=O)C(=S)NN2C(=O)/C(=C\c3ccc(O)c(C(=O)O)c3)SC2=S)cc(OC)c1OC ; what pIC50 value has been reported?
Reply: 4.35
